Biological target: Human rhinovirus A protease (Human rhinovirus sp.)
Assay: Binding affinity on human Rhinovirus 3C protease (rhinovirus serotype 14)
In this section, each of the molecules is paired with its reported log10 K obs / 1.
measured parameter: log10 K obs / 1 (log10 of the value in M⁻¹ s⁻¹)

structure=CCOC(=O)/C=C/[C@H](CCC(N)=O)NC(=O)[C@H](Cc1ccccc1)NC(=O)[C@@H](NC(=O)OCc1ccccc1)c1ccccc1 reading=4.32
structure=CCOC(=O)/C=C/[C@H](CCC(N)=O)NC(=O)[C@H](Cc1ccc(OCC)cc1)NC(=O)[C@H](CC(C)C)NC(=O)OCc1ccccc1 reading=3.62
structure=CCOC(=O)/C=C/[C@H](CCC(N)=O)NC(=O)[C@H](Cc1ccccc1)NC(=O)[C@H](CC1CCCCC1)NC(=O)OCc1ccccc1 reading=4.59
structure=CCOC(=O)/C=C/[C@H](CCC(N)=O)NC(=O)[C@H](Cc1ccccc1)NC(=O)OCc1ccccc1 reading=2.60
structure=CCOC(=O)/C=C/[C@H](CCC(N)=O)NC(=O)[C@H](Cc1ccccc1)NC(=O)[C@H](CO)NC(=O)OCc1ccccc1 reading=4.60
structure=CCOC(=O)/C=C/[C@H](CCC(N)=O)NC(=O)[C@H](Cc1ccccc1)NC(=O)[C@H](CCN1CCOCC1)NC(=O)OCc1ccccc1 reading=4.54
